Each entry below carries its measured Ki, system: Alpha-1B adrenergic receptor (Homo sapiens) (UniProt P35368).
Sequence (P35368 whole entry, looked up): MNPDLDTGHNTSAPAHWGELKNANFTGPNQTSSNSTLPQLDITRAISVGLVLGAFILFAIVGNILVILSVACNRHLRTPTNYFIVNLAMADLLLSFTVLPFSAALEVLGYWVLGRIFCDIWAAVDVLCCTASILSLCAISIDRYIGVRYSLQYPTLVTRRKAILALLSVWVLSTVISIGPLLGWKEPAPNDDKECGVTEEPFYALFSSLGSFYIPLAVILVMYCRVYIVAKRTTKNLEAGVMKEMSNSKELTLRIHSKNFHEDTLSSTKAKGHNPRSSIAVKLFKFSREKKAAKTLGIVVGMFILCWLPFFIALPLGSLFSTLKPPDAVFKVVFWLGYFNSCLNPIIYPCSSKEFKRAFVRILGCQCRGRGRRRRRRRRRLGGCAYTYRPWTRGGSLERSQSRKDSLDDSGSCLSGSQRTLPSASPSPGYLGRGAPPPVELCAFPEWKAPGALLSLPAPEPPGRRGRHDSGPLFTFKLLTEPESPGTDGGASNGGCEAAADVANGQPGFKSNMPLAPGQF

[in] // Ki lookup, key: Cc1ccc2c(OCCN3CCC(Cc4ccc5c(c4F)NC(=O)CO5)CC3)cc(F)cc2n1
[out] 1.26 µM

[in] // Ki lookup, key: Cc1ccc2c(OCCN3CCC(Cc4ccc5c(c4)NC(=O)CO5)CC3)cccc2n1
[out] 2.51 µM

---

Assayed System: 5-hydroxytryptamine receptor 2C (Homo sapiens)
Sequence (P28335 whole entry): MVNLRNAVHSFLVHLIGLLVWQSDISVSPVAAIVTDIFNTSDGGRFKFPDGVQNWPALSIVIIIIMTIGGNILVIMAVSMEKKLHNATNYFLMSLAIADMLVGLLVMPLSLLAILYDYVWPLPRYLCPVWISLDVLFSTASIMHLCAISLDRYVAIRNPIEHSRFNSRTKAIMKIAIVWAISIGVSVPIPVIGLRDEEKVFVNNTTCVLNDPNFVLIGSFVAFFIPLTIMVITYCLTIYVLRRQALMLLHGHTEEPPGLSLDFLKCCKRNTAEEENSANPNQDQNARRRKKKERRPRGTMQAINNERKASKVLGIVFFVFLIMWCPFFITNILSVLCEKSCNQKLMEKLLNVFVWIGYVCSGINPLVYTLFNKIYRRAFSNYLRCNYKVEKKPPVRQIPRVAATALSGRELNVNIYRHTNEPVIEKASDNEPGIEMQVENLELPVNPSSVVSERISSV
Measurement Name: Ki (nM)
All answers are understood in nM, so give the number only.

[in] // Ki lookup, key: Cc1ccc2c(OCCN3CCC(Cc4cc(F)c5c(c4)NC(=O)CO5)CC3)cc(Cl)cc2n1
[out] 2510

---

I'd appreciate it if you could supply Ki values for the items below.
Assayed System: Sodium-dependent serotonin transporter (Rattus norvegicus, UniProt P31652)
Sequence (P31652 whole entry): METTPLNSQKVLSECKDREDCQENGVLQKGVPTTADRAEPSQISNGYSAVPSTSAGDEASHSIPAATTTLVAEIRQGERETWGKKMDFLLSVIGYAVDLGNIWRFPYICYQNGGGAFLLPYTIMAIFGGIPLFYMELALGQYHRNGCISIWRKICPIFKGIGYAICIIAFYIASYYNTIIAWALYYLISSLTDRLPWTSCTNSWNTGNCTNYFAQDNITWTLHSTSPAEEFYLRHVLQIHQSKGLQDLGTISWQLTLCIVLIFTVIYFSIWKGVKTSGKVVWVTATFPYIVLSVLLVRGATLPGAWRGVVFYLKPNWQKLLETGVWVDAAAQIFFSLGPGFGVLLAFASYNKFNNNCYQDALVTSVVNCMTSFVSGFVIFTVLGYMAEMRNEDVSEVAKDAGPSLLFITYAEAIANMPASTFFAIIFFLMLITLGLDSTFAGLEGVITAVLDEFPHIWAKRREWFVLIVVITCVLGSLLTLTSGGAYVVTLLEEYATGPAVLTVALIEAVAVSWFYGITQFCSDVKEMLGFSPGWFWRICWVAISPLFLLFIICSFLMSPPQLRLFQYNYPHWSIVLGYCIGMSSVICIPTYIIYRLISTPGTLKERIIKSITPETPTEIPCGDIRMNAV
Experiment Notes: Inhibition of [3H]5-HT uptake at SERT in rat cortical synaptosomes
All answers are understood in µM, so give the number only.

[in] Under Sodium-dependent serotonin transporter (Rattus norvegicus, UniProt P31652): Ki value of Cc1ccc2c(OCCN3CCC(Cc4ccc5c(c4F)NC(=O)CO5)CC3)cc(Cl)cc2n1 ?
[out] 0.0631

[in] Under Sodium-dependent serotonin transporter (Rattus norvegicus, UniProt P31652): Ki value of Cc1ccc2c(OCCN3CCC(Cc4ccc5c(c4)NC(=O)CO5)CC3)ccc(Cl)c2n1 ?
[out] 0.0126

[in] Under Sodium-dependent serotonin transporter (Rattus norvegicus, UniProt P31652): Ki value of Cc1ccc2c(OCCN3CCC(Cc4ccc5c(c4F)NC(=O)CO5)CC3)cccc2n1 ?
[out] 0.0158

[in] Under Sodium-dependent serotonin transporter (Rattus norvegicus, UniProt P31652): Ki value of Cc1ccc2c(OCCN3CCC(Cc4cc(F)c5c(c4)NC(=O)CO5)CC3)cc(F)cc2n1 ?
[out] 0.0631

[in] Under Sodium-dependent serotonin transporter (Rattus norvegicus, UniProt P31652): Ki value of Cc1ccc2c(OCCN3CCC(Cc4ccc5c(c4)NC(=O)CO5)CC3)c(F)ccc2n1 ?
[out] 0.01

[in] Under Sodium-dependent serotonin transporter (Rattus norvegicus, UniProt P31652): Ki value of Cc1ccc2c(OCCN3CCC(Cc4ccc5c(c4)NC(=O)CO5)CC3)cc(C#N)cc2n1 ?
[out] 0.1

[in] Under Sodium-dependent serotonin transporter (Rattus norvegicus, UniProt P31652): Ki value of Cc1ccc2c(OCCN3CCC(Cc4ccc5c(c4)NC(=O)CO5)CC3)ccc(F)c2n1 ?
[out] 0.00794

[in] Under Sodium-dependent serotonin transporter (Rattus norvegicus, UniProt P31652): Ki value of Cc1ccc2c(OCCN3CCC(Cc4cc5c(cc4F)OCC(=O)N5)CC3)cccc2n1 ?
[out] 0.00794

[in] Under Sodium-dependent serotonin transporter (Rattus norvegicus, UniProt P31652): Ki value of Cc1ccc2c(OCCN3CCC(Cc4ccc5c(c4F)NC(=O)CO5)CC3)cc(F)cc2n1 ?
[out] 0.0251

[in] Under Sodium-dependent serotonin transporter (Rattus norvegicus, UniProt P31652): Ki value of Cc1ccc2c(OCCN3CCC(Cc4cc5c(cc4F)OCC(=O)N5)CC3)cc(Cl)cc2n1 ?
[out] 0.0158

[in] Under Sodium-dependent serotonin transporter (Rattus norvegicus, UniProt P31652): Ki value of Cc1ccc2c(OCCN3CCC(Cc4ccc5c(c4)NC(=O)CO5)CC3)cc(Cl)cc2n1 ?
[out] 0.01

[in] Under Sodium-dependent serotonin transporter (Rattus norvegicus, UniProt P31652): Ki value of Cc1ccc2c(OCCN3CCC(Cc4ccc5c(c4)NC(=O)CO5)CC3)cc(F)cc2n1 ?
[out] 0.0158

[in] Under Sodium-dependent serotonin transporter (Rattus norvegicus, UniProt P31652): Ki value of Cc1ccc2c(OCCN3CCC(Cc4cc5c(cc4F)OCC(=O)N5)CC3)cc(F)cc2n1 ?
[out] 0.00794

[in] Under Sodium-dependent serotonin transporter (Rattus norvegicus, UniProt P31652): Ki value of Cc1ccc2c(OCCN3CCC(Cc4cc(F)c5c(c4)NC(=O)CO5)CC3)cccc2n1 ?
[out] 0.00631

[in] Under Sodium-dependent serotonin transporter (Rattus norvegicus, UniProt P31652): Ki value of Cc1ccc2c(OCCN3CCC(Cc4cc(F)c5c(c4)NC(=O)CO5)CC3)cc(Cl)cc2n1 ?
[out] 0.0631
